STATED CONDITIONS: 373.15 K; 101.33 kPa; Liquid; Vibrating tube method
ENDPOINT LABEL: mass density (kg/m3)
The reply should contain only the number, in kg/m3.

Exercise: Would you kindly share the measured mass density for CCCCCCCCCCCCCCCCCCCCCC(=O)OC [methyl docosanoate] ?
Solution: 806.9

Exercise: Would you kindly share the measured mass density for CCCCCCCCCCCCCCCCCCCCCCCC(=O)OC [methyl tetracosanoate] ?
Solution: 806.8

Exercise: Would you kindly share the measured mass density for CCCCCCCCCCCCCCCCCCCC(=O)OC [methyl eicosanoate] ?
Solution: 807

Exercise: Would you kindly share the measured mass density for CCCCCCCC/C=C\CCCCCCCCCC(=O)OC [methyl cis-11-eicosenoate] ?
Solution: 817.3

Exercise: Would you kindly share the measured mass density for CCCCCCCCCCCCCCCCCCCC(=O)OCC [ethyl eicosanoate] ?
Solution: 802.4

Exercise: Would you kindly share the measured mass density for CC/C=C\C/C=C\C/C=C\CCCCCCCC(=O)OCC [ethyl 9,12,15-octadecatrienoate] ?
Solution: 834.5

* * *

STATED CONDITIONS: 283.15 K; 101.33 kPa; Liquid
ENDPOINT LABEL: viscosity (mPa·s)
The reply should contain only the number, in mPa·s.

Exercise: Would you kindly share the measured viscosity for CC/C=C\C/C=C\C/C=C\CCCCCCCC(=O)OCC [ethyl 9,12,15-octadecatrienoate] ?
Solution: 5.538

Exercise: Would you kindly share the measured viscosity for CCCCC/C=C\C/C=C\CCCCCCCC(=O)OCC [ethyl linoleate] ?
Solution: 7.084

Exercise: Would you kindly share the measured viscosity for CC/C=C\C/C=C\C/C=C\CCCCCCCC(=O)OC [methyl (Z,Z,Z)-9,12,15-octadecatrienoate] ?
Solution: 5.618

Exercise: Would you kindly share the measured viscosity for CCCCCCCC/C=C\CCCCCCCCCC(=O)OC [methyl cis-11-eicosenoate] ?
Solution: 11.97

Exercise: Would you kindly share the measured viscosity for CCCCCCCC/C=C\CCCCCCCCCCCC(=O)OC [methyl (Z)-13-docosenoate] ?
Solution: 14.94

Exercise: Would you kindly share the measured viscosity for CCCCCC/C=C\CCCCCCCC(=O)OC [methyl (Z)-9-hexadecenoate] ?
Solution: 5.367

* * *

STATED CONDITIONS: 323.15 K; 101.33 kPa; Liquid
ENDPOINT LABEL: viscosity (mPa·s)
The reply should contain only the number, in mPa·s.

Exercise: Would you kindly share the measured viscosity for CCCCCCCCCCCCCCCCCCCC(=O)OCC [ethyl eicosanoate] ?
Solution: 4.973

Exercise: Would you kindly share the measured viscosity for CCCCCCCCCCCCCCCCCCCC(=O)OC [methyl eicosanoate] ?
Solution: 4.832

Exercise: Would you kindly share the measured viscosity for CCCCCCCC/C=C\CCCCCCCCCC(=O)OC [methyl cis-11-eicosenoate] ?
Solution: 4.062

Exercise: Would you kindly share the measured viscosity for CCCCC/C=C\C/C=C\CCCCCCCC(=O)OCC [ethyl linoleate] ?
Solution: 2.829

Exercise: Would you kindly share the measured viscosity for CCCCCC/C=C\CCCCCCCC(=O)OC [methyl (Z)-9-hexadecenoate] ?
Solution: 2.175

Exercise: Would you kindly share the measured viscosity for CCCCCCCC/C=C\CCCCCCCCCCCC(=O)OC [methyl (Z)-13-docosenoate] ?
Solution: 4.76

Exercise: Would you kindly share the measured viscosity for CC/C=C\C/C=C\C/C=C\CCCCCCCC(=O)OC [methyl (Z,Z,Z)-9,12,15-octadecatrienoate] ?
Solution: 2.472

Exercise: Would you kindly share the measured viscosity for CC/C=C\C/C=C\C/C=C\CCCCCCCC(=O)OCC [ethyl 9,12,15-octadecatrienoate] ?
Solution: 2.511
